# testSystem: cGMP binding sites of GST-cGB-PDE5 fusion protein (Homo sapiens)
# Construct: made in house; host or cells: E. coli BL21 (DE3)
# Sequence (O76074 46-539 limits assumed): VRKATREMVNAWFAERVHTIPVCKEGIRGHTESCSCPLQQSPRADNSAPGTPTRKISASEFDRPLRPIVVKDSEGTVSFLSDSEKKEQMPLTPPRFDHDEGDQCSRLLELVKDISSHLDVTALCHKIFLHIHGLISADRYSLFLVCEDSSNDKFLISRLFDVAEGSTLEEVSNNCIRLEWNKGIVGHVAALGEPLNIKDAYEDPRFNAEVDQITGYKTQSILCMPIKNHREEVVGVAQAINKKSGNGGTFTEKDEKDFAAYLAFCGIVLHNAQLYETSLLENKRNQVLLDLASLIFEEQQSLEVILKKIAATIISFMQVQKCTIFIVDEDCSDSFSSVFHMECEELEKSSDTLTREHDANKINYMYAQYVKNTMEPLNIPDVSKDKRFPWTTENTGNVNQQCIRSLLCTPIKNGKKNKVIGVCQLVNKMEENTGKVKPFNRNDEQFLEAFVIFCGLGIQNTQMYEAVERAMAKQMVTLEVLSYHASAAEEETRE
# methodNotes: cGMP binding assay with GST-cGB-PDE5 fusion protein
# conditions: FIG. 24
readout: competition with cGMP (2 μM) in binding of GST-cGB-PDE5

// query competition with cGMP (2 μM) in binding of GST-cGB-PDE5 value for entry O=c1[nH]cnc2c1ncn2[C@@H]1O[C@@H]2COP(=O)(O)O[C@H]2[C@H]1O
can partially compete

Do the same for O=c1ccn([C@@H]2O[C@@H]3COP(=O)(O)O[C@H]3[C@H]2O)c(=O)[nH]1 please
did not compete

Do the same for Nc1nc2c(nc(Br)n2[C@@H]2O[C@@H]3COP(=O)(O)O[C@H]3[C@H]2O)c(=O)[nH]1 please
can partially compete

Do the same for CCCCOC1C2OP(=O)(O)OCC2OC1n1cnc2c(=O)[nH]c(N)nc21 (stereo not drawn) please
did not compete

Do the same for Nc1ccn([C@@H]2O[C@@H]3COP(=O)(O)O[C@H]3[C@H]2O)c(=O)n1 please
did not compete

More entries:
// query competition with cGMP (2 μM) in binding of GST-cGB-PDE5 value for entry CCCCOC1C2OP(=O)(O)OCC2OC1n1cnc2c(N)ncnc21 (stereo not drawn)
did not compete
